target: human mGlu4 receptor (Homo sapiens, UniProt Q14833); construct: expressed in transfected cells; host or cells: HEK-293 (monoclonal, stably transfected); test: Ca2+ mobilization in vitro assay on recombinant human mGlu4 expressed in HEK293 cells (mGlu4 PAM); assay type: cell-based; conditions: HEK293; maximal response in % of the maximal stimulatory effect obtained with saturating concentrations of L-AP4; read-out: Eff. (%)
Sequence (Q14833 33-912): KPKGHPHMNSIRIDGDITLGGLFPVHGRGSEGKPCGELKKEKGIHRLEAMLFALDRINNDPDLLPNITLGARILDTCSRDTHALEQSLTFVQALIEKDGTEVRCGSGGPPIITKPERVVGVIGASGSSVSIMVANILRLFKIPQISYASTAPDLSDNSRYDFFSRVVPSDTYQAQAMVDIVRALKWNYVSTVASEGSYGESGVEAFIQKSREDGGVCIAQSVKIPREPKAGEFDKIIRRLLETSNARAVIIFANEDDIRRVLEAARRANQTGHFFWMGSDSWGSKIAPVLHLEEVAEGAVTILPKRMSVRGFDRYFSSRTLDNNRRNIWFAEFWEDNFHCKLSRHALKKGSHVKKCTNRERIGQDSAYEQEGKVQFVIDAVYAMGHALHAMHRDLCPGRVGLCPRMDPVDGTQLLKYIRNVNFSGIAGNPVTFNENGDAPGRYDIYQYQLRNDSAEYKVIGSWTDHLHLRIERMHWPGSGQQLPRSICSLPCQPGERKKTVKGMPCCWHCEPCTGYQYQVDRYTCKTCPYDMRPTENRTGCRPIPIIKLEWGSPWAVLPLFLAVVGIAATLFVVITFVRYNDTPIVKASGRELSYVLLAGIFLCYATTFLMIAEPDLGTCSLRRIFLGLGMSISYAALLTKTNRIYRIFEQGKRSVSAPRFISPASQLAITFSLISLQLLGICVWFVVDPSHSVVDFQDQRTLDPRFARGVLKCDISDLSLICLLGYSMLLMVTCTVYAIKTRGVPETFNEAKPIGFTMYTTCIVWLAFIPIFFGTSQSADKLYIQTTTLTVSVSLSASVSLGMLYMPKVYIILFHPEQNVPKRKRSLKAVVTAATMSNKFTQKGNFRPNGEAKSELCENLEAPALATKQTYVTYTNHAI
observed property: Emax (%)

> print(dat)
                                   compound                               test.system  units.symbol  observed.measurement
1  CC(C)N1C(=O)N(c2c(F)cc(C#Cc3ccccc3)cc2F)C(=O)C[C@@]1(C)c1cccnc1 [Example 70]  human mGlu4 receptor (Homo sapiens, UniProt Q14833)             %                   106
2  CCN1C(=O)N(c2c(F)cc(C#Cc3cccnc3)cc2Cl)C(=O)CC1(C)C [Example 10]  human mGlu4 receptor (Homo sapiens, UniProt Q14833)             %                   169
3  CN1C(=O)N(c2c(F)cc(C#Cc3ccccc3)cc2F)C(=O)CC1(C)c1ccncc1 (racemic) [Example 28]  human mGlu4 receptor (Homo sapiens, UniProt Q14833)             %                   105
4  CN1C(=O)N(c2c(F)cc(C#Cc3ccccc3)cc2F)C(=O)C[C@@]1(C)c1ccc(=O)[nH]c1 [Example 65]  human mGlu4 receptor (Homo sapiens, UniProt Q14833)             %                   123
5  CCC1(CC)CC(=O)N(c2c(F)cc(C#Cc3ccccc3)cc2F)C(=O)N1 [Example 21]  human mGlu4 receptor (Homo sapiens, UniProt Q14833)             %                   106
6  CN1C(=O)N(c2c(F)cc(C#Cc3cccnc3)cc2F)C(=O)C[C@@]1(C)c1ccnc(Cl)c1 [Example 64]  human mGlu4 receptor (Homo sapiens, UniProt Q14833)             %                   119
7  CN1C(=O)N(c2c(F)cc(C#Cc3ccccc3)cc2F)C(=O)C[C@@]1(C)c1cc[nH]c(=O)c1 [Example 74]  human mGlu4 receptor (Homo sapiens, UniProt Q14833)             %                   116
